# Test system: ABUTH (Velvetleaf)
# Method Summary: Postemergence herbicidal evaluation
# Format: in vivo, Abutilon theophrasti
# Stated Conditions: postemergence, rate 0.0625 kg/ha
Measured Property: ABUTH herbicidal rating

{"Compound": "C=CCN1C(=O)C(CC(=O)NS(C)(=O)=O)SC1=Nc1cc(-n2c(=O)cc(C(F)(F)F)n(C)c2=O)c(F)cc1Cl (centres unmarked) [Compound 96]", "Measured": 9.0}
{"Compound": "CC(C)OC(=O)CC1SC(=Nc2cc(-n3c(=O)cc(C(F)(F)F)n(C)c3=O)c(F)cc2Cl)N(C)C1=O (centres unmarked) [Compound 89]", "Measured": 9.0}
{"Compound": "CCOC(=O)CN1C(=O)C(CC(=O)NO)S/C1=N/c1cc(-n2c(=O)cc(C(F)(F)F)n(C)c2=O)c(F)cc1Cl (centres unmarked) [Compound 98]", "Measured": 9.0}
{"Compound": "CN1C(=O)CS/C1=N/c1cc(-n2c(=O)cc(C(F)(F)F)n(C)c2=O)c(F)cc1Cl [Compound 7]", "Measured": 9.0}
{"Compound": "CCC1SC(=Nc2cc(N3C(=O)C4=C(CCCC4)C3=O)c(F)cc2Cl)N(C)C1=O (centres unmarked) [Compound 6]", "Measured": 8.0}
